List of IC50 tested on IRAK1 (His-TEV-IRAK1 (194-712)) (Homo sapiens (Human)).
Sequence (P51617 194-712): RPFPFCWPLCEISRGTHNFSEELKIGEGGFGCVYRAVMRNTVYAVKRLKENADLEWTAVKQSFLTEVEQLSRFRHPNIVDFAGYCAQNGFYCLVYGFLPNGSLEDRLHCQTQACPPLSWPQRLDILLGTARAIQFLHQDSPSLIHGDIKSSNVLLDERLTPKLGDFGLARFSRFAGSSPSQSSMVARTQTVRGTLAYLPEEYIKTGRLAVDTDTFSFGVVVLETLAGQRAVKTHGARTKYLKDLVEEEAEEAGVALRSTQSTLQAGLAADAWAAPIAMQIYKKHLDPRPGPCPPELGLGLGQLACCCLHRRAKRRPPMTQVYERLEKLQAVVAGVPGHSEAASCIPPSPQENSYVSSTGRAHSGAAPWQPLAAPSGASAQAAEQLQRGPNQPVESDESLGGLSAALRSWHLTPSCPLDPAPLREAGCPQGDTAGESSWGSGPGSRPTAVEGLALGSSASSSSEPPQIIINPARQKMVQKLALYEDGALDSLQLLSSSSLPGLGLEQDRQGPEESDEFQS
Counter-ions that a name gives are not always drawn.
experimental endpoint: IC50

{"columns": ["compound", "test target", "assay value"],
 "data": [
  ["Cn1cc(-c2cccc(-c3ncc(-c4cnn(C)c4)c(N[C@H]4CCN(S(C)(=O)=O)C4)n3)c2)cn1", "IRAK1 (His-TEV-IRAK1 (194-712)) (Homo sapiens (Human))", "100 to 1000 nM"],
  ["CC(=O)N[C@H]1C[C@H](Nc2nc(-c3cccc(-c4cnn(C)c4)c3)ncc2-c2cnn(C)c2)C1", "IRAK1 (His-TEV-IRAK1 (194-712)) (Homo sapiens (Human))", "1000 to 5000 nM"],
  ["Cn1cc(-c2cccc(-c3ncc(-c4cnn(C)c4)c(NCC4[C@H]5CN(S(C)(=O)=O)C[C@@H]45)n3)c2)cn1 (stereo partly drawn)", "IRAK1 (His-TEV-IRAK1 (194-712)) (Homo sapiens (Human))", "> 5000 nM"],
  ["Cn1cc(-c2cccc(-c3ncc(-c4cnn(C)c4)c(NC4CC5CCC4N5)n3)c2)cn1 (stereo not drawn)", "IRAK1 (His-TEV-IRAK1 (194-712)) (Homo sapiens (Human))", "> 5000 nM"],
  ["Cn1cc(-c2cccc(-c3ncc(-c4cnn(C)c4)c(NC4CC5CC4N(S(C)(=O)=O)C5)n3)c2)cn1 (stereo not drawn)", "IRAK1 (His-TEV-IRAK1 (194-712)) (Homo sapiens (Human))", "> 5000 nM"],
  ["Cn1cc(-c2cccc(-c3ncc(-c4cnn(C)c4)c(N4CCC(CO)C4)n3)c2)cn1 (stereo not drawn)", "IRAK1 (His-TEV-IRAK1 (194-712)) (Homo sapiens (Human))", "1000 to 5000 nM"],
  ["CC(C)Nc1nc(-c2cccc(-c3cnn(C)c3)c2)ncc1-c1nnc(C2CCNCC2)s1", "IRAK1 (His-TEV-IRAK1 (194-712)) (Homo sapiens (Human))", "100 to 1000 nM"],
  ["Cn1cc(-c2cccc(-c3ncc(-c4cnn(C)c4)c(NCC(=O)O)n3)c2)cn1 [Example 26, Formate]", "IRAK1 (His-TEV-IRAK1 (194-712)) (Homo sapiens (Human))", "> 5000 nM"],
  ["CC(C)Nc1nc(-c2cccc(-c3cnn(C)c3)c2)ncc1-c1nnc(C(=O)N2CC[C@@H](O)C2)s1", "IRAK1 (His-TEV-IRAK1 (194-712)) (Homo sapiens (Human))", "100 to 1000 nM"],
  ["Cn1cc(-c2cccc(-c3ncc(-c4nnc(C(=O)N5CC[C@@H](O)C5)s4)c(NC4CCCNC4)n3)c2)cn1 (stereo partly drawn) [Example 20, Hydrochloride]", "IRAK1 (His-TEV-IRAK1 (194-712)) (Homo sapiens (Human))", "100 to 1000 nM"],
  ["Cn1cc(-c2cccc(-c3ncc(-c4ccn(C)n4)c(NC4(CO)COC4)n3)c2)cn1", "IRAK1 (His-TEV-IRAK1 (194-712)) (Homo sapiens (Human))", "100 to 1000 nM"],
  ["Cn1cc(-c2cccc(-c3ncc(-c4cnn(C)c4)c(N[C@@H]4CC[C@H](N)C4)n3)c2)cn1 (racemic)", "IRAK1 (His-TEV-IRAK1 (194-712)) (Homo sapiens (Human))", "100 to 1000 nM"],
  ["Cn1cc(-c2cccc(-c3ncc(-c4cnn(C)c4)c(NCC4(CO)CCC4)n3)c2)cn1", "IRAK1 (His-TEV-IRAK1 (194-712)) (Homo sapiens (Human))", "100 to 1000 nM"],
  ["CC(=O)N1CCC(F)(CNc2nc(-c3cccc(-c4cnn(C)c4)c3)ncc2-c2cnn(C)c2)CC1", "IRAK1 (His-TEV-IRAK1 (194-712)) (Homo sapiens (Human))", "1000 to 5000 nM"],
  ["Cn1cc(-c2cccc(-c3ncc(-c4cnn(C)c4)c(NC4C5CCCC4CC(N)C5)n3)c2)cn1 (stereo not drawn)", "IRAK1 (His-TEV-IRAK1 (194-712)) (Homo sapiens (Human))", "100 to 1000 nM"]
]}
